Details: in ethylbenzene, 303.15 K
quantity-measured: solubility (mole fraction)
// keep it numeric: no unit symbol after the value

Query block: I am curious: what solubility (mole fraction) value has been reported for N#CCc1ccccc1[N+](=O)[O-] ?
Result block: 0.0644

###

Conditions: in acetonitrile, 283.15 K
quantity-measured: solubility (mole fraction)

Query block: Fill in: solubility (mole fraction) of N#CCc1ccccc1[N+](=O)[O-] is ___
Result block: 0.107

###

Settings: in 2-butanone, 323.15 K
quantity-measured: solubility (mole fraction)
Lab note: jot down the number only; don't add units.

Query block: Fill blank: measured solubility (mole fraction) of the molecule N#CCc1ccccc1[N+](=O)[O-] is ____.
Result block: 0.422

###

Details: in water, 288.15 K
quantity-measured: solubility (mole fraction)

Query block: Name the recorded solubility (mole fraction) for N#CCc1ccccc1[N+](=O)[O-] .
Result block: 5.57e-05

###

Conditions: in toluene, 303.15 K
quantity-measured: solubility (mole fraction)
Just the number, please, no unit after it.

Query block: Reported solubility (mole fraction), compound N#CCc1ccccc1[N+](=O)[O-] : ____
Result block: 0.0968

###

Settings: in ethylbenzene, 283.15 K
quantity-measured: solubility (mole fraction)
The answer should be written as a number, with no unit following it.

Query block: Requested field: solubility (mole fraction). Item: N#CCc1ccccc1[N+](=O)[O-]
Result block: 0.0285

###

Details: in ethylbenzene, 323.15 K
quantity-measured: solubility (mole fraction)
Respond with the number and no other words.

Query block: Value lookup for solubility (mole fraction); key = N#CCc1ccccc1[N+](=O)[O-]
Result block: 0.16

###

Conditions: in ethanol, 308.15 K
quantity-measured: solubility (mole fraction)
Give only the figure.

Query block: Return reported solubility (mole fraction); argument: N#CCc1ccccc1[N+](=O)[O-]
Result block: 0.0213

###

Conditions: in acetic acid, 313.15 K
quantity-measured: solubility (mole fraction)
Keep it simple and answer with nothing but the number.

Query block: Any idea what solubility (mole fraction) was measured for N#CCc1ccccc1[N+](=O)[O-] ?
Result block: 0.104

###

Details: in acetonitrile, 328.15 K
quantity-measured: solubility (mole fraction)
Could you respond with only the numeric value?

Query block: Find the recorded solubility (mole fraction) belonging to N#CCc1ccccc1[N+](=O)[O-] and report it.
Result block: 0.424

###

Conditions: in isobutanol, 323.15 K
quantity-measured: solubility (mole fraction)
Reply with just the number.

Query block: Any idea what solubility (mole fraction) was measured for N#CCc1ccccc1[N+](=O)[O-] ?
Result block: 0.0303

###

Details: in methanol, 318.15 K
quantity-measured: solubility (mole fraction)
Simply state the number, no unit and no words.

Query block: Entry N#CCc1ccccc1[N+](=O)[O-] : reported solubility (mole fraction) = ?
Result block: 0.0514

###

Settings: in water, 303.15 K
quantity-measured: solubility (mole fraction)
Write no unit; give the number alone.

Query block: What does the data say about its solubility (mole fraction)? Entry: N#CCc1ccccc1[N+](=O)[O-]
Result block: 0.000102

###

Settings: in ethylbenzene, 333.15 K
quantity-measured: solubility (mole fraction)
Number only, please.

Query block: Return reported solubility (mole fraction); argument: N#CCc1ccccc1[N+](=O)[O-]
Result block: 0.26

###

Details: in acetonitrile, 323.15 K
quantity-measured: solubility (mole fraction)
# answer = number (no unit)

Query block: Returns the measured solubility (mole fraction) for the input compound. Input: N#CCc1ccccc1[N+](=O)[O-]
Result block: 0.362

###

Settings: in acetic acid, 328.15 K
quantity-measured: solubility (mole fraction)
Note: the reply should be a number with no unit written.

Query block: // query solubility (mole fraction) value for entry N#CCc1ccccc1[N+](=O)[O-]
Result block: 0.196

###

Details: in 2-butanone, 328.15 K
quantity-measured: solubility (mole fraction)
Just the number.

Query block: Would you mind telling me what solubility (mole fraction) value was observed for N#CCc1ccccc1[N+](=O)[O-] ?
Result block: 0.475

###

Conditions: in methanol, 328.15 K
quantity-measured: solubility (mole fraction)
# output: bare number, no unit

Query block: Data request, read-out solubility (mole fraction), for N#CCc1ccccc1[N+](=O)[O-]
Result block: 0.0842

###

Settings: in ethyl acetate, 278.15 K
quantity-measured: solubility (mole fraction)
// no unit, no text: just the number

Query block: # query: solubility (mole fraction) of entry N#CCc1ccccc1[N+](=O)[O-]
Result block: 0.13

###

Details: in ethylbenzene, 278.15 K
quantity-measured: solubility (mole fraction)
Reply briefly: the number, and no unit.

Query block: Param item = N#CCc1ccccc1[N+](=O)[O-] ; retrieve measured solubility (mole fraction).
Result block: 0.0237

###

Details: in water, 313.15 K
quantity-measured: solubility (mole fraction)

Query block: So what's the measured solubility (mole fraction) for this one? N#CCc1ccccc1[N+](=O)[O-]
Result block: 0.000153

###

Conditions: in isobutanol, 328.15 K
quantity-measured: solubility (mole fraction)

Query block: Would you kindly share the measured solubility (mole fraction) for N#CCc1ccccc1[N+](=O)[O-] ?
Result block: 0.0404

###

Settings: in n-butanol, 278.15 K
quantity-measured: solubility (mole fraction)
Field format: numeric only.

Query block: Given N#CCc1ccccc1[N+](=O)[O-] , state its recorded solubility (mole fraction).
Result block: 0.00351

###

Settings: in water, 333.15 K
quantity-measured: solubility (mole fraction)
Note: the reply should be a number with no unit written.

Query block: # query: solubility (mole fraction) of entry N#CCc1ccccc1[N+](=O)[O-]
Result block: 0.000333

###

Settings: in isopropanol, 313.15 K
quantity-measured: solubility (mole fraction)
Write the number on its own, no unit after it.

Query block: Using the record for N#CCc1ccccc1[N+](=O)[O-] , report its solubility (mole fraction).
Result block: 0.0228

###

Conditions: in isopropanol, 308.15 K
quantity-measured: solubility (mole fraction)
The reply should be a number, written without any unit.

Query block: Name the recorded solubility (mole fraction) for N#CCc1ccccc1[N+](=O)[O-] .
Result block: 0.0177

###

Conditions: in water, 308.15 K
quantity-measured: solubility (mole fraction)
Note: the reply should be a number with no unit written.

Query block: Quick one: solubility (mole fraction) for N#CCc1ccccc1[N+](=O)[O-] ?
Result block: 0.000125

###

Conditions: in 1,4-dioxane, 313.15 K
quantity-measured: solubility (mole fraction)
Enter a number only.

Query block: # query: solubility (mole fraction) of entry N#CCc1ccccc1[N+](=O)[O-]
Result block: 0.303

###

Conditions: in 1,4-dioxane, 333.15 K
quantity-measured: solubility (mole fraction)
Respond with the number and no other words.

Query block: Field request: solubility (mole fraction) | item: N#CCc1ccccc1[N+](=O)[O-]
Result block: 0.469

###

Settings: in methanol, 288.15 K
quantity-measured: solubility (mole fraction)
Lab note: write the figure by itself, no unit.

Query block: // query solubility (mole fraction) value for entry N#CCc1ccccc1[N+](=O)[O-]
Result block: 0.0105

###

Details: in ethylbenzene, 328.15 K
quantity-measured: solubility (mole fraction)

Query block: Would you mind telling me what solubility (mole fraction) value was observed for N#CCc1ccccc1[N+](=O)[O-] ?
Result block: 0.204

###

Settings: in ethyl acetate, 323.15 K
quantity-measured: solubility (mole fraction)
// keep it numeric: no unit symbol after the value

Query block: So what's the measured solubility (mole fraction) for this one? N#CCc1ccccc1[N+](=O)[O-]
Result block: 0.357

###

Details: in isobutanol, 288.15 K
quantity-measured: solubility (mole fraction)
Give only the figure.

Query block: Entry under review: N#CCc1ccccc1[N+](=O)[O-] . Reported solubility (mole fraction)?
Result block: 0.00491

###

Settings: in acetone, 323.15 K
quantity-measured: solubility (mole fraction)
Just the number, please.

Query block: Given the molecule N#CCc1ccccc1[N+](=O)[O-] , what is its reported solubility (mole fraction)?
Result block: 0.439

###

Details: in isopropanol, 328.15 K
quantity-measured: solubility (mole fraction)
The reply should be a number, written without any unit.

Query block: Can you share its solubility (mole fraction)? I mean this compound: N#CCc1ccccc1[N+](=O)[O-]
Result block: 0.0492

###

Conditions: in isobutanol, 298.15 K
quantity-measured: solubility (mole fraction)

Query block: Reported solubility (mole fraction), compound N#CCc1ccccc1[N+](=O)[O-] : ____
Result block: 0.00803

###

Conditions: in isopropanol, 293.15 K
quantity-measured: solubility (mole fraction)
Could you respond with only the numeric value?

Query block: State the recorded solubility (mole fraction) for this entry: N#CCc1ccccc1[N+](=O)[O-]
Result block: 0.00751

###

Settings: in n-propanol, 323.15 K
quantity-measured: solubility (mole fraction)
Answer with the value's number alone.

Query block: Endpoint output: solubility (mole fraction) of N#CCc1ccccc1[N+](=O)[O-] . Value?
Result block: 0.0426

###

Conditions: in isobutanol, 303.15 K
quantity-measured: solubility (mole fraction)
Answer with a bare number; do not write a unit.

Query block: Item under review: N#CCc1ccccc1[N+](=O)[O-] . Reported solubility (mole fraction)?
Result block: 0.0102

Origin of values: BigSolDB 2.1
